Recorded values, source PubChem BioAssay (NCATS).

- Tested on: WaGa
- EXPERIMENTAL DETAILS: qHTS assay to identify novel small-molecules to repurpose for Merkel cell carcinoma treatment (AID 1296009); note: nearly all actives have a fitted effect of over 60% in size
- EXPERIMENTAL PARAMETERS: MCC and control cell lines, CellTiter-Glo viability, 72 h; series mostly up to 46 µM
Records with an inconclusive call do not appear. The source made the active and inactive calls. Calls come from the whole dose curve; as a rule, active = well fitted inhibition curve with a large enough effect; inconclusive = small, poorly fitted or top-dose-only effect; inactive = flat fitted curve, though single readings scatter.
Mark one answer only. Choices: active, inactive

Consider the worked cases shown below.
> print(dat)
                                   molecule  label.value
1  COc1cc(F)c(C(C)C)cc1-c1ccc(C(F)(F)F)cc1CN1C(=O)O[C@H](c2cc(C(F)(F)F)cc(C(F)(F)F)c2)[C@@H]1C     inactive
2  N#CC(=C1Nc2ccccc2S1)c1ccnc(OCc2ccc(CN3CCOCC3)cc2)n1       active
3  CCCCC(C=O)NC(=O)C(CC(C)C)NC(=O)OCc1ccccc1 (centres undefined)     inactive
4     COC(=O)[C@H](c1ccccc1Cl)N1CCc2sccc2C1     inactive

Problem: Which outcome did this test record for the molecule `COc1cc2c(cc1OC)CC(=O)N(CCCN(C)C[C@H]1Cc3cc(OC)c(OC)cc31)CC2` ?
Solution: inactive

Problem: Entry CCCCN(CCCC)CC(O)c1cc(Cl)cc2c1-c1ccc(Cl)cc1C2=Cc1ccc(Cl)cc1 (centres undefined) : call = ?
Solution: inactive

Problem: Recorded test call requested for `C=CCc1cccc(C=NNC(=O)CN2CCN(Cc3ccccc3)CC2)c1O`
Solution: active

Problem: Lab log entry: `CN1CCc2c(n(Cc3ccc(C(=O)NO)cc3)c3ccccc23)C1` — outcome as called in the assay?
Solution: active

Problem: Each molecule tested received a call. Report the one for `CN(C)c1nc(Cc2ccc(NC(=O)c3ccc(C(F)(F)F)cc3)cc2)nc(N(C)C)c1CC(=O)O` .
Solution: inactive

Problem: Hi team, can someone confirm the assay call for `NC(=O)c1ccc(N(C(N)=O)c2c(F)cccc2F)nc1-c1ccc(F)cc1F` ?
Solution: inactive

Problem: # fetch the recorded call for `C=C1c2cccc(O)c2C(O)=C2C(=O)[C@@]3(O)C(O)=C(C(N)=O)C(=O)[C@@H](N(C)C)[C@@H]3[C@@H](O)[C@H]12` here
Solution: inactive

Problem: Fill in: this test's call for `CNC(=O)c1ccc2c(C(=Nc3cccc(CN(C)C)c3)c3ccccc3)c(O)[nH]c2c1` is ___
Solution: inactive

Problem: Any idea what this test logged for `O=C(O)CCC=CCC[C@@H]1[C@H](N2CCCCC2)[C@@H](O)C[C@@H]1OCc1ccc(-c2ccccc2)cc1` ?
Solution: inactive

Problem: // outcome(item) with item = `C[C@]12CC[C@@H]3c4ccc(O)cc4CC[C@H]3[C@H]1[C@@H](O)[C@@H](O)[C@H]2O`
Solution: inactive

Problem: Tell me the assay call for `Oc1cc(O)cc(C=Cc2ccc(O)c(O)c2)c1` please.
Solution: active

Problem: Call for entry `CNc1nc(Nc2ccc(C(=O)N3CCOCC3)cc2OC)ncc1Cl` :
Solution: inactive

Problem: Please indicate how the test categorized `CN1CCN(c2cccc(Nc3nc4c(-c5ccc(S(C)(=O)=O)cc5)cccn4n3)c2)CC1` .
Solution: inactive

Problem: Tell me the recorded outcome of this test for `CN[C@@H](C)[C@H]1[C@H](O)C[C@@]2(C)[C@@H]3CC[C@H]4C(C)(C)[C@@H](NC)CC[C@@]45C[C@@]35CC[C@]12C` .
Solution: inactive

Problem: Tell me the recorded outcome of this test for `CCOc1ccccc1N=Nc1c(C)[nH]n(-c2nc(-c3ccccc3)cs2)c1=O` .
Solution: inactive
